Target: A1 receptors (Rattus norvegicus)
Sequence (P25099 1-326): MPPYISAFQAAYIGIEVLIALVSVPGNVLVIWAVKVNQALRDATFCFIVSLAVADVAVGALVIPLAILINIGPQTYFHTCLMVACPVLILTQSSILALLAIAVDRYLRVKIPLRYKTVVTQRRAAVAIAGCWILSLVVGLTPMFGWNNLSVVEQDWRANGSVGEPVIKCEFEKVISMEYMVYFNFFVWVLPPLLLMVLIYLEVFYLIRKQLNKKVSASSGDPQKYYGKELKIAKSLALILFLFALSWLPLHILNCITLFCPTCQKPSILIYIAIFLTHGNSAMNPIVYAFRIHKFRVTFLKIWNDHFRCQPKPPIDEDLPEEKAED
Entries annotated with measured pKi
The scale used: pKi is minus the common logarithm of the concentration in molar units.

- Compound: "Cn1cnc2c(NC3CCCCC3)ncnc21 [N^6 -Cyclohexyl-9-MA]"
  pKi: 6.03

Moving on to the next compound.
Dear colleague, I am looking for the recorded pKi of the following compound: Cn1cnc2c(NC3CCCC3)ncnc21 [compound 0840, N^6-cyclopentyl-9-MA]
6.27
